These data points were gathered from a collection of fitness landscapes (doi:10.1016/j.celrep.2020.107928).

B1: Caulobacter ParB omega fusion; a variant is named by its letters at X, in order, B8GW30 (parent)
chain: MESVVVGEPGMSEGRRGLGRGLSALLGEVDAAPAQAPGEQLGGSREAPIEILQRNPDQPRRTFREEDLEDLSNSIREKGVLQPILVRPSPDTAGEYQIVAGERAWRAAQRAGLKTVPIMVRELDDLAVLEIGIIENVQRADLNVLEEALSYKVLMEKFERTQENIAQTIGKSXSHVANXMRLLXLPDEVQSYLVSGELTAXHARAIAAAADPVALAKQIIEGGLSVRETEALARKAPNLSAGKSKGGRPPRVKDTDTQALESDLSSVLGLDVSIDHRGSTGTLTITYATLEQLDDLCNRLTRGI

Variants of: B1
Experiment: one-hybrid fitness for binding NBS DNA (the Noc-binding site; scaled: cognate 1, non-cognate 0); higher = stronger binding
Experimental context: with NBS DNA site
In all, about 81,000 sequences were measured (“one-hybrid fitness for binding NBS DNA”: median about -0.1, highest 2% from about 0.36 on). What follows is part of a selection rich in the highest values, with near analogues and random picks from the rest.
For each entry below, report its one-hybrid fitness for binding NBS DNA value.

Qu. Find the recorded one-hybrid fitness for binding NBS DNA belonging to QHSH and report it.
Ans. ≤ 0.2

Qu. Recorded one-hybrid fitness for binding NBS DNA of TETQ , please.
Ans. ≤ 0.2

Qu. Sample GHLS — what was its one-hybrid fitness for binding NBS DNA?
Ans. ≤ 0.2

Qu. Consider the variant shown here: QYNF What is its recorded one-hybrid fitness for binding NBS DNA?
Ans. ≤ 0.2

Qu. # query: one-hybrid fitness for binding NBS DNA of entry RTDA
Ans. ≤ 0.2

Qu. Would you kindly share the measured one-hybrid fitness for binding NBS DNA for RMRA ?
Ans. 0.409

Qu. GET /values?readout=one-hybrid fitness for binding NBS DNA&item= RYYA
Ans. ≤ 0.2

Qu. Look up one-hybrid fitness for binding NBS DNA: YEHY
Ans. ≤ 0.2

Qu. So what's the measured one-hybrid fitness for binding NBS DNA for this one? AEER
Ans. ≤ 0.2

Qu. Data request, read-out one-hybrid fitness for binding NBS DNA, for RTRA
Ans. 0.446

Qu. Record request: one-hybrid fitness for binding NBS DNA value, item QRDM
Ans. ≤ 0.2

Qu. Item under review: YFSE . Reported one-hybrid fitness for binding NBS DNA?
Ans. ≤ 0.2

Qu. # one-hybrid fitness for binding NBS DNA lookup, item QDWF
Ans. ≤ 0.2

Qu. Report one-hybrid fitness for binding NBS DNA for RDGI please.
Ans. ≤ 0.2

Qu. Need one-hybrid fitness for binding NBS DNA of QTSS , thanks.
Ans. 0.522

Qu. For RGNV , what is its reported one-hybrid fitness for binding NBS DNA?
Ans. ≤ 0.2

Qu. Consider the variant RYDA and give its measured one-hybrid fitness for binding NBS DNA.
Ans. ≤ 0.2

Qu. Which one-hybrid fitness for binding NBS DNA value belongs to QCSS ?
Ans. 0.449

Qu. For the variant RYRA , what one-hybrid fitness for binding NBS DNA is on record?
Ans. 0.367

Qu. # get_value(readout='one-hybrid fitness for binding NBS DNA', item= QHSS )
Ans. 0.37

Qu. Record request: one-hybrid fitness for binding NBS DNA value, item RCRA
Ans. 0.422

Qu. Please give the measured one-hybrid fitness for binding NBS DNA for this variant: RSRA
Ans. 0.317
